The reported measurements were obtained from the supplement of paper PMC3334620.

target-of-assay: Cad1 (UniProt P24813)
Sequence: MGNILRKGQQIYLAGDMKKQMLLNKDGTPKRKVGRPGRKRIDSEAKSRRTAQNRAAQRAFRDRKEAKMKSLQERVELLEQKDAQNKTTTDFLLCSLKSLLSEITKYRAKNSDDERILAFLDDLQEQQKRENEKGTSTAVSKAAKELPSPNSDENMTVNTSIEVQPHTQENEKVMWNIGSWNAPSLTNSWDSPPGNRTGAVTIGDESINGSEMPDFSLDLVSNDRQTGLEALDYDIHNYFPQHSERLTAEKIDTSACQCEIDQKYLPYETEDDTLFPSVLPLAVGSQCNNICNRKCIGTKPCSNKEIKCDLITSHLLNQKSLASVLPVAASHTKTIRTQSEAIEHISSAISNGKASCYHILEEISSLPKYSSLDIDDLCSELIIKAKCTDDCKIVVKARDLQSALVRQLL
test-details: PBM E-score (8-mer binding enrichment) (E-score (-0.5 to 0.5)); higher = stronger / more preferred TF binding
measurement-parameters: protein concentration: 100 nM; construct: GST-full length
In all, about 33,000 sequences were measured (“E-score (-0.5 to 0.5)”: median about -0.0014, highest 2% from about 0.25 on). The list comes from a sample in which the highest values are over-represented; it also holds close analogues and randomly drawn sequences.
Please respond with reported PBM E-score for every item in the list.
In your answer, state the number alone without any accompanying words.

Form: item `GACAAGAA` ; test system Cad1 (UniProt P24813); PBM E-score: 0.0396

Form: item `GACAAAGC` ; test system Cad1 (UniProt P24813); PBM E-score: 0.06

Form: item `AACAAATA` ; test system Cad1 (UniProt P24813); PBM E-score: 0.186

Form: item `ATAAGCAT` ; test system Cad1 (UniProt P24813); PBM E-score: 0.0827

Form: item `AATCCGCG` ; test system Cad1 (UniProt P24813); PBM E-score: 0.13

Form: item `CACAAATC` ; test system Cad1 (UniProt P24813); PBM E-score: 0.126

Form: item `CTCGTAAC` ; test system Cad1 (UniProt P24813); PBM E-score: 0.112

Form: item `CTTTCAGA` ; test system Cad1 (UniProt P24813); PBM E-score: 0.0705

Form: item `GCCAACAA` ; test system Cad1 (UniProt P24813); PBM E-score: -0.0504

Form: item `GACAAATC` ; test system Cad1 (UniProt P24813); PBM E-score: 0.306

Form: item `CGAACTCC` ; test system Cad1 (UniProt P24813); PBM E-score: 0.0429

Form: item `GAGAGCCC` ; test system Cad1 (UniProt P24813); PBM E-score: -0.458

Form: item `CCCGCCGC` ; test system Cad1 (UniProt P24813); PBM E-score: -0.0389

Form: item `CACAAATG` ; test system Cad1 (UniProt P24813); PBM E-score: -0.0179

Form: item `AAAGGACT` ; test system Cad1 (UniProt P24813); PBM E-score: -0.224

Form: item `GCATCTAA` ; test system Cad1 (UniProt P24813); PBM E-score: 0.194

Form: item `CCAAAGGG` ; test system Cad1 (UniProt P24813); PBM E-score: -0.0732

Form: item `ATCGTAAG` ; test system Cad1 (UniProt P24813); PBM E-score: -0.0168

Form: item `ATAAGCAA` ; test system Cad1 (UniProt P24813); PBM E-score: 0.296

Form: item `TACAAATA` ; test system Cad1 (UniProt P24813); PBM E-score: 0.185

Form: item `GACAAATA` ; test system Cad1 (UniProt P24813); PBM E-score: 0.293

Form: item `CAAGTCCA` ; test system Cad1 (UniProt P24813); PBM E-score: -0.0962

----------
target-of-assay: Cad1 (UniProt P24813)
Sequence: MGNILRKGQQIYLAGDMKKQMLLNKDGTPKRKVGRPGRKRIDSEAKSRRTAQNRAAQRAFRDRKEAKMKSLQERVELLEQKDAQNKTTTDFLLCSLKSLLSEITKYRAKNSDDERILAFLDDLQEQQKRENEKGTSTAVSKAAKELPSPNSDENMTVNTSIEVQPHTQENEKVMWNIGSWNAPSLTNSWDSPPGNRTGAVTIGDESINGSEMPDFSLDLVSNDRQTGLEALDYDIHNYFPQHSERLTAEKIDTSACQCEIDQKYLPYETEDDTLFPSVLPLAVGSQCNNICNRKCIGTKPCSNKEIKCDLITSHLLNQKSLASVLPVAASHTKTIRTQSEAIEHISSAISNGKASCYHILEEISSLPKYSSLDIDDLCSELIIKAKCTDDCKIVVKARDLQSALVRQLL
test-details: PBM E-score (8-mer binding enrichment) (E-score (-0.5 to 0.5)); higher = stronger / more preferred TF binding
measurement-parameters: protein concentration: 100 nM; construct: GST-full length
The full ranking holds about 33,000 sequences; the median of “E-score (-0.5 to 0.5)” is about -0.0014, and the highest 2% start at about 0.25. Only a selection was taken, and the highest values are over-represented in it overall.
Please respond with reported PBM E-score for every item in the list.
In your answer, state the number alone without any accompanying words.

The measured PBM E-score associated with `ACCATCTG` reads -0.0991

The measured PBM E-score associated with `AACGAACG` reads 0.0769

The measured PBM E-score associated with `AAGTATGG` reads 0.00171

The measured PBM E-score associated with `CGCGAAAA` reads 0.246

The measured PBM E-score associated with `ACGGACCT` reads -0.0269

The measured PBM E-score associated with `ACTTCGCG` reads 0.216

The measured PBM E-score associated with `GTATTGCA` reads -0.0639

The measured PBM E-score associated with `CTGCTCAC` reads -0.0643

The measured PBM E-score associated with `AGCGATCG` reads 0.216

The measured PBM E-score associated with `CAGCGCGG` reads 0.112

The measured PBM E-score associated with `CCCCCTGA` reads -0.414

----------
Please respond with reported PBM E-score for every item in the list.
target-of-assay: Cad1 (UniProt P24813)
Sequence: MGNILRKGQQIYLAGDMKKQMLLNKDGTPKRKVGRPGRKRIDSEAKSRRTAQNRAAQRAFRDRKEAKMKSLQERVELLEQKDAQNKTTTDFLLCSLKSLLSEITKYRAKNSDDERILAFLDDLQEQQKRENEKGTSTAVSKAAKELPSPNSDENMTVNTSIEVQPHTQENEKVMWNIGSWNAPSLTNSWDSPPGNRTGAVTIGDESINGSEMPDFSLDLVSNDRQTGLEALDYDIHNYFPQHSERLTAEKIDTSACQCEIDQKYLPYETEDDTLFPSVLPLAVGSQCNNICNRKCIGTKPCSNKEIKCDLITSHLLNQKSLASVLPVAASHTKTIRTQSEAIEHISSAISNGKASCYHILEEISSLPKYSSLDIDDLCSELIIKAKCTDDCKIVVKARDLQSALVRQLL
test-details: PBM E-score (8-mer binding enrichment) (E-score (-0.5 to 0.5)); higher = stronger / more preferred TF binding
measurement-parameters: protein concentration: 100 nM; construct: GST-full length
The full ranking holds about 33,000 sequences; the median of “E-score (-0.5 to 0.5)” is about -0.0014, and the highest 2% start at about 0.25. This is one part of a sample in which the highest values are shown more often than they occur.
In your answer, state the number alone without any accompanying words.

The measured PBM E-score associated with `CTTATCAC` reads 0.0836

The measured PBM E-score associated with `ACCCGCGA` reads 0.0834

The measured PBM E-score associated with `CAGCATAA` reads 0.169

The measured PBM E-score associated with `CCACTATC` reads -0.0188

The measured PBM E-score associated with `ACTGCGCG` reads 0.0621

The measured PBM E-score associated with `CTTATCAA` reads 0.256

The measured PBM E-score associated with `ACATTTAG` reads -0.126

The measured PBM E-score associated with `AAGTGGAA` reads -0.0197

The measured PBM E-score associated with `ACCCACTA` reads 0.107

The measured PBM E-score associated with `GGCGCTCA` reads 0.149

The measured PBM E-score associated with `GTTATCAA` reads 0.129

The measured PBM E-score associated with `CTAGATAG` reads 0.0131

The measured PBM E-score associated with `ATATTTGC` reads 0.306

The measured PBM E-score associated with `ATGCGCAT` reads 0.334

The measured PBM E-score associated with `CATATCAA` reads 0.259

The measured PBM E-score associated with `ATATTTGG` reads 0.146

The measured PBM E-score associated with `CCCGCCGG` reads -0.00326

The measured PBM E-score associated with `CCTGATCG` reads -0.0975

The measured PBM E-score associated with `AGCATCCA` reads -0.168

The measured PBM E-score associated with `CTATTTGC` reads -0.0458

The measured PBM E-score associated with `AGCTAGTG` reads -0.0897

The measured PBM E-score associated with `GCGCGCGA` reads 0.265

The measured PBM E-score associated with `ACGCGTAA` reads 0.176

The measured PBM E-score associated with `AATATCAA` reads 0.138

The measured PBM E-score associated with `ATTATCGG` reads 0.0117

The measured PBM E-score associated with `ATTTCGAC` reads -0.0837

The measured PBM E-score associated with `ATATTTAG` reads 0.255

The measured PBM E-score associated with `AACCGCGA` reads 0.287

The measured PBM E-score associated with `ACCCGCGC` reads 0.256

The measured PBM E-score associated with `GCAAAAGA` reads -0.0108

The measured PBM E-score associated with `ACGCGCGC` reads 0.216

The measured PBM E-score associated with `AACGACCT` reads -0.0376

The measured PBM E-score associated with `ATAGGCAT` reads -0.202

The measured PBM E-score associated with `ACCCGCGT` reads -0.00317

The measured PBM E-score associated with `GTATTTAA` reads 0.0263

The measured PBM E-score associated with `ATTATCAA` reads 0.297

The measured PBM E-score associated with `CGTTGCTA` reads 0.103

The measured PBM E-score associated with `ATTATCGA` reads 0.107

The measured PBM E-score associated with `GACAGCGC` reads 0.14

The measured PBM E-score associated with `TACCGCGA` reads 0.172

The measured PBM E-score associated with `CATATCAG` reads -0.00093

The measured PBM E-score associated with `GCGCGCAC` reads 0.218

The measured PBM E-score associated with `GCATTTAA` reads 0.0157

The measured PBM E-score associated with `ATTTTTAG` reads 0.0211

The measured PBM E-score associated with `ATTATCAC` reads 0.151

The measured PBM E-score associated with `CTATTTAA` reads -0.0377
